TARGET OR SYSTEM: hERG (KCNH2) (Homo sapiens)
Sequence (Q12809 whole entry): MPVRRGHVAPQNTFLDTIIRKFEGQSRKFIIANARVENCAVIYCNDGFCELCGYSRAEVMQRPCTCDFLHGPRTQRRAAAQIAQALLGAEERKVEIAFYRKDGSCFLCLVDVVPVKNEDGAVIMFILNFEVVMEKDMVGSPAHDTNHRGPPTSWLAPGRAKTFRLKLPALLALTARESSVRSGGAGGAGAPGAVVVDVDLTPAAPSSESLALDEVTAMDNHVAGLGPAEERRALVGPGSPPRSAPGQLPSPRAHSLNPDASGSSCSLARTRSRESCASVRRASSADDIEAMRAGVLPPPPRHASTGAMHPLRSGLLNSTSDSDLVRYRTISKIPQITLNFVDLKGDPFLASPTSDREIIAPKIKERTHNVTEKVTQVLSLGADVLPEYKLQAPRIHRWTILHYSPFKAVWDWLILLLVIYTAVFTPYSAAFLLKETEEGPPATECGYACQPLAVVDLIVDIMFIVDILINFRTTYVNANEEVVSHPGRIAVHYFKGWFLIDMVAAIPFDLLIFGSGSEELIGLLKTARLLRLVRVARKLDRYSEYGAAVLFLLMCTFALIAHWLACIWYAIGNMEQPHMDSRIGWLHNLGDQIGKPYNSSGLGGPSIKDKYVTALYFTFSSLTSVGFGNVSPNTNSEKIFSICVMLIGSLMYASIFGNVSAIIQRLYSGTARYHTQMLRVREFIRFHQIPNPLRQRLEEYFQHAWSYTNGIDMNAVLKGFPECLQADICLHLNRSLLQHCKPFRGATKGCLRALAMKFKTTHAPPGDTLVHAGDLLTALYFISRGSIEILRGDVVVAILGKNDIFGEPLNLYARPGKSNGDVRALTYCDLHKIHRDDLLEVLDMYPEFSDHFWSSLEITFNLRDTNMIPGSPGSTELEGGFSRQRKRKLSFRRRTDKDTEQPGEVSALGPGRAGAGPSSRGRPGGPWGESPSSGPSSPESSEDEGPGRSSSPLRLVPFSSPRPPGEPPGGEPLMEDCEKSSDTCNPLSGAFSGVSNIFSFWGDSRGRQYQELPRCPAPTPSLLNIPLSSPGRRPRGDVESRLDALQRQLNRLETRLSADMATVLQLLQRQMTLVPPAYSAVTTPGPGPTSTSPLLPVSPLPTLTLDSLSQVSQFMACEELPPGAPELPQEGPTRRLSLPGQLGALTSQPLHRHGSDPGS
TEST NAME: Inhibition of human ERG expressed in CHO cells at 200 uM at -80 mV holding potential by patch clamp assay relative to control
Type: cell-based
CONDITION CONTEXT: CHO cells expressing human ERG

GIVEN SMILES | inhibition at 200 µM (%)
COC(=O)[C@@H](N)CCC(=O)Nc1ccc(COC2=C(C#N)[C@H](O)[C@]3(C)C4=CC(=O)[C@@H]5[C@@H]6CC(C)(C)CC[C@]6(C(=O)OC)CC[C@@]5(C)[C@]4(C)CC[C@H]3C2(C)C)cc1 | 36.1
